The entries below are paired with their reported EC50 (nM), inhibition of IFNα2b-induced SEAP reporter in HEK-Blue IFNα/β cells.
# assayed-target: T1, human IFNAR-1 on cells (human, UniProt P17181 28-557)
# T1 sequence (looked up): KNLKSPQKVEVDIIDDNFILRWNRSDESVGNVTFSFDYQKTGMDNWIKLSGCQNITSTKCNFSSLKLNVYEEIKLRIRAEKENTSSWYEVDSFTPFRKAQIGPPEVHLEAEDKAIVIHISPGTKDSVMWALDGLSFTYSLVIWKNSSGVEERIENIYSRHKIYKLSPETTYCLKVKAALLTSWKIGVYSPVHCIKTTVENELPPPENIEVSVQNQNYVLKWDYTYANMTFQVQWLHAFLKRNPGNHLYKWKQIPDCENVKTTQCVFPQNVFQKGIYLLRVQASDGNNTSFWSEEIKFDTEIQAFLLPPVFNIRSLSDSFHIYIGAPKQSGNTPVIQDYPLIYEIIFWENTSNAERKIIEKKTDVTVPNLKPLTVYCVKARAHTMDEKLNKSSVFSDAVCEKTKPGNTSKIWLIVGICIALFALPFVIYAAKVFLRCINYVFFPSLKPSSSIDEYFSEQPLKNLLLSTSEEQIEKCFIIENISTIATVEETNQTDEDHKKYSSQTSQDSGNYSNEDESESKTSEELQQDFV
# assay-text: cell-based or functional assay
Give just the numeric value; nM need not be written.

Reported EC50 (nM), inhibition of IFNα2b-induced SEAP reporter in HEK-Blue IFNα/β cells, binder 34H8 (antibody, V domains shown, Hybridoma-derived monoclonal antibody) VH: EVQLLQSGAELVKPGASVRLSCTASGFNIKDYYLHWVKQRTEQGLEWIGRIDPEDGETKYAPKFQGKATITTDTSSNTAYLQLSSLTSEDTAVYYCTRGGNYDVMDYWGQGTSVTVSS VL: DIVMTQSQKFMSTSVGDRVSVTCKASQNVGTYVVWYQQKPGQSPKALIYSASYRYSGVPDRFTGSGSGTDFTLTIGNVQSEDLAEYFCQQKNTYPFTFGGGTKLEIE : ____ 0.56

Reported EC50 (nM), inhibition of IFNα2b-induced SEAP reporter in HEK-Blue IFNα/β cells, binder 269A7 (antibody, V domains shown, Hybridoma-derived monoclonal antibody) VH: EVQLQESGPGLAKPSQTLSLTCSVTGYSITSDYWNWIRKFPGNKLEYMGYISYSGTIYYNPSLKSRISITRDTSKNQYYLQLNSVTNEDTATYYCARSGGMYYFDYWGQGTTLTVSS VL: DIQMTQSPASLSASVGETVTITCRASGNIHNYLAWYQQKQGKSPQLLVYNAKTLEDGVPSRFSGSGSGTQYSLKINSLQPEDFGSYYCQHFWSIPPTFGSGTKLEIK : ____ 6.71

Reported EC50 (nM), inhibition of IFNα2b-induced SEAP reporter in HEK-Blue IFNα/β cells, binder 402G3 (antibody, V domains shown, Hybridoma-derived monoclonal antibody) VH: QVQLQQSGAELVKPGSSVKISCKASGFTFTSHFIHWIKQQPGNGLKWIGWIYPGDDDTEYNHKFNGKATLTADKSSSTAYMHLSSLTSEDSAVYFCARRVEYYNGGFAYWGQGTLVTVSS VL: DVQMTQSPSYLAAPPGESVSISCKASKNIRNNLGWYQERPGKTPNLLIHSGSTLQSGAPSRFSGGGSGTDFTLTIRSLESEDSAVYYCQQYDQYPLTFGSGTKLEIK : ____ 1.27

Reported EC50 (nM), inhibition of IFNα2b-induced SEAP reporter in HEK-Blue IFNα/β cells, binder 293H10 (antibody, V domains shown, Hybridoma-derived monoclonal antibody) VH: EVQLQESGPGLAKPSQTLSLTCSVTGYSITSDYWNWIRKFPGNKLEYMGYISYSGNTDYNPSLKSRFSITRDTSKNQFYLQLNSVTTEDTATYYCARSEGMYFFDYWGQGTTLTVSS VL: DIQMTQSPASLSASVGETVSITCRASGNIHNYLAWYHQKQGKSPQLLVYNAKTLADGVPSRFSGSGSGTQYSLKINSLQPEDFGSYYCQHFWSTPPTFGSGTKLEIK : ____ 1.28

Data origin: patent US20200399381A1
